TARGET UNDER TEST: TLR8 (Homo sapiens)
Sequence (Q9NR97 27-1041): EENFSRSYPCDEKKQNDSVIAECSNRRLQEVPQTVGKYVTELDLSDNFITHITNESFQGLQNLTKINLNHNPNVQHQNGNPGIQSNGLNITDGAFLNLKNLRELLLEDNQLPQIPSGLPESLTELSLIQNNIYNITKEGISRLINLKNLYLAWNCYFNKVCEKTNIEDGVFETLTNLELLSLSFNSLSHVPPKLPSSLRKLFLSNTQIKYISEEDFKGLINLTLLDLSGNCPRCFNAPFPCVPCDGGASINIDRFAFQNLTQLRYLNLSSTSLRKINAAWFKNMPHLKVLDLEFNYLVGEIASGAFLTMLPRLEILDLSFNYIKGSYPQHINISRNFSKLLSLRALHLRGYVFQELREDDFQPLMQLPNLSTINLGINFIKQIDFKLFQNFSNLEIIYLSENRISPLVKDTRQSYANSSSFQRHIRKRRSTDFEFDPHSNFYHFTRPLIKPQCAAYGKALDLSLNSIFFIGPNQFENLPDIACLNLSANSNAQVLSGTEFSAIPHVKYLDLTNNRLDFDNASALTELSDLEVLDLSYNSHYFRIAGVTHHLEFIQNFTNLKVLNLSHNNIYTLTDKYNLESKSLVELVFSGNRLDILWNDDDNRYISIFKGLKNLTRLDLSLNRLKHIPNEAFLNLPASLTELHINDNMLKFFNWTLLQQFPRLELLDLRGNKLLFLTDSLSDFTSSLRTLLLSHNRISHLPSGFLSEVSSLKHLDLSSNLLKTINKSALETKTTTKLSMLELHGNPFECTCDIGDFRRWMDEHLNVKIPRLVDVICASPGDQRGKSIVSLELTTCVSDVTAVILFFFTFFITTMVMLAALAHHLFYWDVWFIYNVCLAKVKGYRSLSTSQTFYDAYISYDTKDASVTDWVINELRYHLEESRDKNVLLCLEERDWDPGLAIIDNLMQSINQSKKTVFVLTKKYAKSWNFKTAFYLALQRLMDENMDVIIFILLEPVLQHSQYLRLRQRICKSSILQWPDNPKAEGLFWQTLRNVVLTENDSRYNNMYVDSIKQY
ASSAY DETAILS: HEK-TLR8 NF-κB-luciferase reporter, R848 or Motolimod stimulation (potentiation or inhibition)
Format: cell-based
Design: expressed in transfected cells; host or cells: 293XLhTLR8 (HEK293)
RUN CONDITIONS: HEK-TLR8; 500 nM ASO; fold increase relative to R848 without ASO (Alharbi et al., 2020)
In the oligonucleotide strings, read from the 5' end, every base follows the letter of its sugar. An asterisk marks phosphorothioate; unmarked linkages are phosphodiester. Other units and linkages are bracketed, terminal groups are in braces. A string of capitals states the bases alone. d = 2'-deoxy (DNA); m = 2'-O-methyl
Threshold rule: TLR8-500 nM: averaged NF-κB-Luciferase relative to R848 greater than or equal to 5 fold is 1; below that, -1.

mG*mA*mA*mA*mA*G*A*T*T*A*T*C*T*T*C*mU*mU*mU*mU*mA (GAAAAGATTATCTTCUUUUA; sugars from the 5' end m5 d10 m5, all phosphorothioate, methylation of C not given here) [[CDKN2B-AS1]2134] = -1
mU*mG*mA*mC*mA*T*T*T*C*G*T*G*G*C*T*mC*mC*mU*mA*mC (mU*mG*mA*mC*mA*dT*dT*dT*dC*dG*dT*dG*dG*dC*dT*mC*mC*mU*mA*mC; antisense) [[LINC-PINT]523 KL] = -1
mC*mU*mU*mG*mU*G*A*A*A*A*G*A*T*T*A*mU*mC*mU*mU*mC (mC*mU*mU*mG*mU*dG*dA*dA*dA*dA*dG*dA*dT*dT*dA*mU*mC*mU*mU*mC) [[CDKN2B-AS1]2139] = 1
mG*mU*mC*mU*mC*C*T*C*C*A*C*A*C*C*C*mU*mU*mC*mU*mC (mG*mU*mC*mU*mC*dC*dT*dC*dC*dA*dC*dA*dC*dC*dC*mU*mU*mC*mU*mC; antisense) [[LINC-PINT]126] = 1
mC*mA*mA*mG*mC*C*C*C*A*G*C*G*T*T*C*mC*mU*mC*mC*mG (mC*mA*mA*mG*mC*dC*dC*dC*dA*dG*dC*dG*dT*dT*dC*mC*mU*mC*mC*mG; antisense) [[LINC-PINT]83.1] = -1
mG*mC*mA*mG*mU*C*T*C*C*A*T*G*T*C*C*mC*mA*mG*mG*mC (GCAGUCTCCATGTCCCAGGC; antisense; sugars from the 5' end m5 d10 m5, all phosphorothioate, methylation of C not given here) [[CDKN2B-AS1]2234] = -1

Test whether the substance mG*mA*mU*mU*mA*A*A*A*C*A*G*A*T*T*A*mA*mU*mA*mC*mA (mG*mA*mU*mU*mA*dA*dA*dA*dC*dA*dG*dA*dT*dT*dA*mA*mU*mA*mC*mA) [[CDKN2B-AS1]1773] records TLR8-500 nM: averaged NF-κB-Luciferase relative to R848 of 5 fold or higher.
-1

Test whether the substance mC*mA*mC*mC*mC*T*T*C*T*C*T*C*T*G*G*mU*mC*mC*mC*mA (CACCCTTCTCTCTGGUCCCA; antisense; sugars from the 5' end m5 d10 m5, all phosphorothioate, methylation of C not given here) [[LINC-PINT]116] records TLR8-500 nM: averaged NF-κB-Luciferase relative to R848 of 5 fold or higher.
1

Values compiled from patent US20240384268A1.
